# Assayed system: T1, human IL-6 (human, UniProt P05231 30-212)
# T1 construct: also called interleukin-6
# T1 sequence (P05231 30-212 limits assumed): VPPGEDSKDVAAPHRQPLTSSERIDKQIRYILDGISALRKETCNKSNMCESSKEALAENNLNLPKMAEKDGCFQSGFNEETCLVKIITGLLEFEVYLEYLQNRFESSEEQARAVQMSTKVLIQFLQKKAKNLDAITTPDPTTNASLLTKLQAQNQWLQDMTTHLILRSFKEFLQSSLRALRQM
# Experimental protocol: SPR (Biacore T200), antibody from cell supernatant captured on Protein A, IL-6 flowed over, 37 C
# Experimental: Those four positions were selected based on their tolerance for mutations as observed in bacterial and mammalian screens. […] These cultures were centrifuged and supernatants containing secreted antibodies were harvested and diluted in HBS-EP+ running buffer (1:20 ratio). Antibodies were captured on a Protein A chip (GE) by injecting 1:20 cell supernatant dilutions at 10 μL/min for 60 seconds. […]
So I've got a bunch of binders here, and I need their koff values.
Enter your answer as a number in s⁻¹; do not include the unit.

Supply recorded koff for anti-IL-6 antibody, heavy chain T63K, G66D / light chain WT (antibody, human IgG1, V domains shown, Derived as m2; Engineered human IgG1) VH: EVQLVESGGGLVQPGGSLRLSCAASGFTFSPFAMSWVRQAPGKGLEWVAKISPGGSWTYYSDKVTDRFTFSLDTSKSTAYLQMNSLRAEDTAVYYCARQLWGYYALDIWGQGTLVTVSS VL: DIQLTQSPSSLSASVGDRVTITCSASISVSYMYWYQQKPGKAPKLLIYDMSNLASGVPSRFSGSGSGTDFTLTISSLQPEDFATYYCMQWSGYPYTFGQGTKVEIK here.
0.000461

Retrieve koff measured for anti-IL-6 antibody, heavy chain I51T, G66D / light chain WT (antibody, human IgG1, V domains shown, Derived as m2; Engineered human IgG1) VH: EVQLVESGGGLVQPGGSLRLSCAASGFTFSPFAMSWVRQAPGKGLEWVAKTSPGGSWTYYSDTVTDRFTFSLDTSKSTAYLQMNSLRAEDTAVYYCARQLWGYYALDIWGQGTLVTVSS VL: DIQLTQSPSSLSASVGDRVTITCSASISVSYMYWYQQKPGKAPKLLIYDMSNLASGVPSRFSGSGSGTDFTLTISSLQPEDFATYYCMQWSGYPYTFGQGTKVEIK and print it.
0.000415

Using known records, supply koff for anti-IL-6 antibody, heavy chain S35F, G66D / light chain WT (antibody, human IgG1, V domains shown, Derived as m2; Engineered human IgG1) VH: EVQLVESGGGLVQPGGSLRLSCAASGFTFSPFAMFWVRQAPGKGLEWVAKISPGGSWTYYSDTVTDRFTFSLDTSKSTAYLQMNSLRAEDTAVYYCARQLWGYYALDIWGQGTLVTVSS VL: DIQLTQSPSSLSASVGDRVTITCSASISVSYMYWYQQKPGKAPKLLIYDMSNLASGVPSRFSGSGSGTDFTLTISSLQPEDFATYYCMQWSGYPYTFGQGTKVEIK
0.00119

Supply koff value. Item: anti-IL-6 antibody, heavy chain I51F, G66D / light chain WT (antibody, human IgG1, V domains shown, Derived as m2; Engineered human IgG1) VH: EVQLVESGGGLVQPGGSLRLSCAASGFTFSPFAMSWVRQAPGKGLEWVAKFSPGGSWTYYSDTVTDRFTFSLDTSKSTAYLQMNSLRAEDTAVYYCARQLWGYYALDIWGQGTLVTVSS VL: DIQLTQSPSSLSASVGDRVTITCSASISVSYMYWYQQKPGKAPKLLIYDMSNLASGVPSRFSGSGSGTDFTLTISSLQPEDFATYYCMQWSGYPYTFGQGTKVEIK
0.00305

Output measured koff for this item: anti-IL-6 antibody, heavy chain S35I, G66D / light chain WT (antibody, human IgG1, V domains shown, Derived as m2; Engineered human IgG1) VH: EVQLVESGGGLVQPGGSLRLSCAASGFTFSPFAMIWVRQAPGKGLEWVAKISPGGSWTYYSDTVTDRFTFSLDTSKSTAYLQMNSLRAEDTAVYYCARQLWGYYALDIWGQGTLVTVSS VL: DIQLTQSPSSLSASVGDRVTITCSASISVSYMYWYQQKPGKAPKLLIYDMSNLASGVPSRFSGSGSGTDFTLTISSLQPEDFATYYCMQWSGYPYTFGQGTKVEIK
0.000376

State its koff: anti-IL-6 antibody, heavy chain T63R, G66D / light chain WT (antibody, human IgG1, V domains shown, Derived as m2; Engineered human IgG1) VH: EVQLVESGGGLVQPGGSLRLSCAASGFTFSPFAMSWVRQAPGKGLEWVAKISPGGSWTYYSDRVTDRFTFSLDTSKSTAYLQMNSLRAEDTAVYYCARQLWGYYALDIWGQGTLVTVSS VL: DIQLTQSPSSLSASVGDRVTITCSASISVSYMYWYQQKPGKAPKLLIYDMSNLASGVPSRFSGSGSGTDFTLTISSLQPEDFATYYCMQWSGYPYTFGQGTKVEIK
0.00046
